# Experimental system: FLAG-Avi-DDB1 and His-CDK12KD/His-CCNKΔC (WT) (Homo sapiens, UniProt Q9NYV4)
# Construct: Human CDK12KD (residues 715–1052); 293F with BirA (FLAG-Avi-DDB1)
# Sequence (Q9NYV4 715-1052 limits assumed, stated change not applied): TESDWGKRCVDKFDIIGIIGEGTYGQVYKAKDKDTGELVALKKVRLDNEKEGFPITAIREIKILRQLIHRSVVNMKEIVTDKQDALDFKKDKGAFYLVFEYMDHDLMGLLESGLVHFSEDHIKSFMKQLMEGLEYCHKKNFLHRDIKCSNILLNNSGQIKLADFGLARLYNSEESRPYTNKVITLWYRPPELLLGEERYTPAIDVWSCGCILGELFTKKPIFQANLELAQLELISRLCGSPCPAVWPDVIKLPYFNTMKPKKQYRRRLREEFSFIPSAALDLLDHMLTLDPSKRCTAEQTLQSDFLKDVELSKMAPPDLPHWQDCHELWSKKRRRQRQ
# Sequence (O75909 11-267 partner limits assumed): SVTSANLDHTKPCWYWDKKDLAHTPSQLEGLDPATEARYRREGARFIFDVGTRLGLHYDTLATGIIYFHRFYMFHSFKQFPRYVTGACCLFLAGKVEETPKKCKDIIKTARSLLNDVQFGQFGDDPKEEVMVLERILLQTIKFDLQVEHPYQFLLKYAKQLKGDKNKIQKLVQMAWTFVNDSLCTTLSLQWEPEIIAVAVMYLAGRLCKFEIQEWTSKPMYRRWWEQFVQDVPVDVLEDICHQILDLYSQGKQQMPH
# Sequence (Q16531 whole entry partner, the tested form may be a part): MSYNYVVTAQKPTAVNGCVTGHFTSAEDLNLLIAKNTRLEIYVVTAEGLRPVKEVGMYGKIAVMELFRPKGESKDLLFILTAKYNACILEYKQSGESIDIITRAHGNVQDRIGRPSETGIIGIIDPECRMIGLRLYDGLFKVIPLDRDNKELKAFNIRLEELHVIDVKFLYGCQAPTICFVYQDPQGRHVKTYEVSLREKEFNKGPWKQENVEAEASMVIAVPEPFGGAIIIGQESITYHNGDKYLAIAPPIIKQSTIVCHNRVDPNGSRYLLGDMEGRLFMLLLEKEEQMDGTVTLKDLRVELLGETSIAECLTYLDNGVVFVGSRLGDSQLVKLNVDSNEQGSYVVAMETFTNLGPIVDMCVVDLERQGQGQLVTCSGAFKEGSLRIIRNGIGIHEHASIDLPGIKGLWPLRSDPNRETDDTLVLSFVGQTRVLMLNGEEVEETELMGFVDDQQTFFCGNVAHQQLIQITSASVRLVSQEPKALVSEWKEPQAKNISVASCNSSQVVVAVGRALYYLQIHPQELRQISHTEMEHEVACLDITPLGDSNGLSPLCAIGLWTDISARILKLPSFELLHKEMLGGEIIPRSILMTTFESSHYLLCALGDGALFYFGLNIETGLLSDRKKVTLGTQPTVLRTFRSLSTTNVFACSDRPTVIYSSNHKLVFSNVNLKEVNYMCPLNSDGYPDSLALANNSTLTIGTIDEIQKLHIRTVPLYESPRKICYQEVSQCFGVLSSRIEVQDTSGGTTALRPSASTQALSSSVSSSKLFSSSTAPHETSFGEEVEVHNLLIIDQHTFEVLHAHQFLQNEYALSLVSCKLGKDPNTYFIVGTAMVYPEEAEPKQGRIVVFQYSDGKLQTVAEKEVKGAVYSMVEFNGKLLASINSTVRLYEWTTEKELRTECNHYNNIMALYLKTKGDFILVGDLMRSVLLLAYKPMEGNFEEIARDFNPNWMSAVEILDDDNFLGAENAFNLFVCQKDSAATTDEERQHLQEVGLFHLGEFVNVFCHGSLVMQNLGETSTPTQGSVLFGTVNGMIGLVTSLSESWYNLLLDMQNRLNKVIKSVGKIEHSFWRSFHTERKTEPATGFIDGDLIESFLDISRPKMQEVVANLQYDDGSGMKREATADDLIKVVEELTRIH
# Assay procedure: AlphaScreen assay, WT
# Reported conditions: WT; read-out: apparent EC50 of CDK12KD/CCNKΔC/DDB1 complex formation
Test readout: pEC50
Answers are plain numbers, as −log10 of the molar value.

(Q) Test system FLAG-Avi-DDB1 and His-CDK12KD/His-CCNKΔC (WT) (Homo sapiens, UniProt Q9NYV4); read-out pEC50; what value for Cc1cccc(Nc2nc(CC(=O)Nc3ncc(C)s3)cs2)n1 [HQ461] ?
(A) 5.72
